# system: UniProt P25774
# Sequence (P25774 whole entry): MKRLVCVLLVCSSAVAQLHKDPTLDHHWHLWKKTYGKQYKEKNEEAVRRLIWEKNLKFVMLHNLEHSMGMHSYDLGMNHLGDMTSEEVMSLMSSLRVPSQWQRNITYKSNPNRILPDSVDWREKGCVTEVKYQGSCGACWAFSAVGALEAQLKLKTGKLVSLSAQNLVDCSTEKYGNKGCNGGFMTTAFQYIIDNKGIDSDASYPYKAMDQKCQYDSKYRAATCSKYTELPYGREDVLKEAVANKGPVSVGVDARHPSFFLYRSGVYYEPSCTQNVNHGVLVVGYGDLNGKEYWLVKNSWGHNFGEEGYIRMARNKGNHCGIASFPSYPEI
# assay_summary: Inhibition of human recombinant cathepsin S using Z-Phe-Arg-pNA as substrate after 80 mins by […] analysis
parameter_measured: Ki
Could you give the number and then its unit, please?

Sample CCN(CC)c1ccc2cc(C(=O)NC3(C(=O)N(C)N(C)C#N)CCCCC3)c(=O)oc2c1 ; Ki observed: 750 nM

* * *

# assay_summary: Inhibition of human cathepsin L using Z-Phe-Arg-pNA as substrate incubated for 30 mins prior to substrate addition measured after 10 mins by […] analysis
parameter_measured: Ki (nM)
Give bare numbers, in nM.

Sample CCN(CC)c1ccc2cc(C(=O)NC3(C(=O)N(C)N(C)C#N)CCCCC3)c(=O)oc2c1 ; Ki observed: 760
